Target: Calcium and integrin-binding protein 1 (Homo sapiens) (UniProt Q99828)
Sequence (Q99828 whole entry, looked up): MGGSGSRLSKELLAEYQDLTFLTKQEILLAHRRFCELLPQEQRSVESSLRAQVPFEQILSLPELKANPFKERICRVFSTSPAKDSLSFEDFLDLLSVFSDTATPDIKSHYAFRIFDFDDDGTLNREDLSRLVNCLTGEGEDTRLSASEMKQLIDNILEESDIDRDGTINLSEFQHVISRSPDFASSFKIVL
Experiment: Primary qHTS for Identification of Calcium Integrin Binding Protein 1 (CIB1) Competitor (AID 1508620);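 note: GST tagged CIB1 binding a fluorescein labelled alphaIIb integrin peptide tracer; top concentration of the series differs between compounds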
Settings: CIB1-GST / FITC-alphaIIb peptide fluorescence polarization; series mostly up to 57.7 µM
Results filed as inconclusive are left out. Active and inactive are the calls of the source. Calls come from the whole dose curve; as a rule, active = well fitted inhibition curve with a large enough effect; inconclusive = small, poorly fitted or top-dose-only effect; inactive = flat fitted curve, though single readings scatter.
ENDPOINT LABEL: outcome

Consider the worked cases shown below.
MOLECULE: Cc1ccc(C(=O)N(CCCN)[C@@H](c2nc3cc(Cl)ccc3c(=O)n2Cc2ccccc2)C(C)C)cc1
ENDPOINT LABEL: outcome
MEASURED VALUE: inactive

MOLECULE: NS(=O)(=O)c1ccc(Nc2nc(OCC3CCCCC3)c3[nH]cnc3n2)cc1
ENDPOINT LABEL: outcome
MEASURED VALUE: inactive

MOLECULE: O=c1[nH]c(=O)n([C@H]2C[C@@H](O)[C@@H](CO)O2)cc1I
ENDPOINT LABEL: outcome
MEASURED VALUE: inactive

MOLECULE: CN1C(=O)C[C@H](C(=O)N[C@@H](Cc2cnc[nH]2)C(=O)N2CCC[C@@H]2C(N)=O)NC1=O
ENDPOINT LABEL: outcome
MEASURED VALUE: inactive

Query: State its outcome on Calcium and integrin-binding protein 1 (Homo sapiens) (UniProt Q99828): O=C(Nc1ccccc1)Nc1ccc(-c2ccc(C(=O)[C@H]3CCC[C@H]3C(=O)O)cc2)cc1
Reply: inactive

Query: Notebook entry, Calcium and integrin-binding protein 1 (Homo sapiens) (UniProt Q99828) assay: outcome of COc1ccc(CCC(=O)Nc2nc3ccc(Cl)cc3s2)cc1OC = ?
Reply: inactive

Query: Under Calcium and integrin-binding protein 1 (Homo sapiens) (UniProt Q99828): outcome value of CC[C@]1(O)C[C@H]2CN(CCC3=c4ccccc4=N[C]3[C@@](C(=O)OC)(c3cc4c(cc3OC)N(C)[C@H]3[C@@](O)(C(N)=O)[C@H](O)[C@]5(CC)C=CCN6CC[C@]43[C@@H]65)C2)C1 ?
Reply: inactive

Query: # value lookup — system Calcium and integrin-binding protein 1 (Homo sapiens) (UniProt Q99828), readout outcome, item CN1[C@H]2CC[C@H]1CC(OC(=O)c1c[nH]c3ccccc13)C2 (stereo partly drawn)
Reply: inactive

Query: outcome of CN[C@@H]1CN(c2ccc3c(=O)c(C(=O)O)cn(-c4nccs4)c3n2)C[C@@H]1OC on Calcium and integrin-binding protein 1 (Homo sapiens) (UniProt Q99828)?
Reply: inactive

Query: Give recorded outcome with Calcium and integrin-binding protein 1 (Homo sapiens) (UniProt Q99828) for the following molecule: CCN1C[C@H](C)n2c(c(O)c3c(=O)n(Cc4ccc(F)c(Cl)c4)nc(C(=O)NC)c32)C1=O
Reply: inactive

Query: Field: outcome (Calcium and integrin-binding protein 1 (Homo sapiens) (UniProt Q99828)). Entry: N#CC(c1ccc(Cl)cc1)c1c(Cl)cc(-n2ncc(=O)[nH]c2=O)cc1Cl (stereo not drawn)
Reply: inactive

Query: Under Calcium and integrin-binding protein 1 (Homo sapiens) (UniProt Q99828): outcome value of O=c1[nH]c(=O)n([C@H]2C[C@@H](O)[C@@H](CO)O2)cc1C(F)(F)F ?
Reply: inactive
